# Tested on: SF-268 CNS
# protocol.text: NCI tumour cell line growth inhibition, 48 h
Each entry below carries its recorded TGI.
observed.property: TGI

* CCN(CC(COc1ccc2c(c1)[n+]([O-])nc(N)[n+]2[O-])OC(C)=O)C(C)=O (centres undefined) | > 100 µM
* COc1ccc([C@@H]2CC(=O)NCCCCNCCCN2)cc1 | > 100 µM
* CCCCP(CCCC)(CCCC)=C(C(=O)OC)C(C(=O)OC)=C1SC(C(=O)OC)=C(C(=O)OC)S1 | > 100 µM
* CC(C)Oc1ccc(C(=O)N[C@H](CNC(=O)CN(C)C)Cc2ccc(-c3cn4cccc([C@H](C)O)c4n3)cc2)cc1Cl | 20.9 µM
* C[C@@]1(N2C(=O)OC[C@@H]2c2ccccc2)C(=O)N([C@H](CC(=O)N2CCC(N3CCCCC3)CC2)C(=O)NCc2cccc(C(F)(F)F)c2)[C@@H]1/C=C/c1ccccc1 | 3.94 µM
* CCNCCCCNCC | > 3750 µM
* C=C1C(=O)OC2/C=C(\C)C3OC3/C=C(/C(=O)OC)C(OC(C)=O)C(OC(=O)C(C)(O)C(C)OC(C)=O)C12 (centres undefined) | 34.1 µM
* CCNCCNC(=O)c1ccc(Br)cc1 | > 100 µM
* Cc1ccc(C2=C(c3ccccc3)C(O)(c3ccc(C)cc3)C(c3ccccc3)=C2c2ccc(C)cc2)cc1 | > 100 µM

----------
# Tested on: NCI/ADR-RES ovarian
# protocol.text: NCI tumour cell line growth inhibition, 48 h
observed.property: TGI

* CNC1C(OC2C(OC3C(O)C(O)C(O)C(O)C3O)OC(C)C2(O)CO)OC(CO)C(O)C1O (stereo not drawn) (tested in a mixture with another compound) | > 100 µM
* N=c1ccn2c(n1)O[C@@H]1[C@@H](O)[C@H](CO)O[C@@H]12 | > 100 µM
* CN(C)/C=N/S(=O)(=O)c1nn2c(C=O)c(-c3ccc(-c4ccc([N+](=O)[O-])cc4)o3)nc2s1 | > 96.6 µM
* COc1ccc(-c2nnc(CCCCCCCCc3nnc(-c4ccc(OC)cc4)o3)o2)cc1 | > 100 µM
* CN1CCN(c2ccc(-n3cc(C(=O)O)c(=O)c4cc(F)c(N5CCN(C)CC5)cc43)nc2)CC1 | > 100 µM
* Cc1ccc(S(=O)(=O)n2cc(-c3nnnn3-c3ccc(Cl)cc3)c(=O)c3ccccc32)cc1 | > 100 µM
* COC(=O)c1scc(N)c1-n1ccc(=O)[nH]c1=O | > 100 µM
* COc1cc2c(cc1OC)C(Cc1c3ccccc3cc3ccccc13)N(C)CC2 (stereo not drawn) | > 74.1 µM
* COc1cc(OC)nc(Nc2c(C#N)c3nc4ccccc4n3c3ccccc23)n1 | > 100 µM
* CC(=O)OC1COC(Nn2c(=O)[nH]c3ccccc3c2=O)C(OC(C)=O)C1OC(C)=O (stereo not drawn) | > 100 µM
* COC1(C)C=NCC(C)(C)NC(=O)C(C)(OC)C=NCC(C)(C)NC1=O (stereo not drawn) | > 10 µM
* COc1ccc(CC2C3=C(CCCC3)CCN2C)cc1 (stereo not drawn) | > 100 µM
* COc1c(O)cc(C(=O)O[C@@H]2Cc3c(O)cc(O)cc3O[C@@H]2c2cc(O)c(O)c(O)c2)cc1O | > 100 µM
* COC(Cc1ccccc1)NC(C)=O (stereo not drawn) | > 100 µM
* Cc1nc(C)c(N2CCN(C#N)CC2)c(=O)[nH]1 | > 100 µM
* Cc1ccc(NC(=O)c2nc(S(C)=O)oc2-c2ccc(F)cc2)cc1Nc1nccc(-c2cccnc2)n1 (stereo not drawn) | 11.9 µM
* O=C(O)c1cc(Sc2ccc([N+](=O)[O-])c(C(=O)O)c2)ccc1[N+](=O)[O-] | > 100 µM
* O=C1O[C@H]2[C@@H]3OC(=O)c4cc(O)c(O)c(O)c4-c4c(cc(O)c(O)c4O)C(=O)OC[C@H]2O[C@@H](OC(=O)c2cc(O)c(O)c(O)c2)[C@@H]3OC(=O)c2cc(O)c(O)c3c2[C@@H]2C1=CC(=O)C(O)(O)C2(O)O3 (stereo partly drawn) | > 100 µM
